This collection of values is drawn from patent US20110143963A1.

# ASSAY_SYSTEM: SH2 domain of human Grb2 (human), P62993
# Sequence (P62993 56-153 limits assumed): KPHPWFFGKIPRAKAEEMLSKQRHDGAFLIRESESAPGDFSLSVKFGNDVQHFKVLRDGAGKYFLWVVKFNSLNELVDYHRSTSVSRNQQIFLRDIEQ
# ASSAY_PROTOCOL: panel E, competition phage ELISA: wtSH2 (Grb2-SH2) phages incubated with free pY1208 peptide (0 to about 2200 nM), phages not bound to the free peptide captured and detected
METRIC: IC50 (nM)
Give your result in nM as a bare value.

Q) May I ask what IC50 has been recorded for NEPLYLNTFANTC (modifications not checked) [peptide corresponding to residues 1204-1216 of ErbB4 receptor (pY1208)] ?
A) 120
